- Test system: Plasmodium berghei
- test name: Luciferase/luciferin-expressing antifolate-resistant parasites were used to infect a culture of HepG2 cells that were pre-incubated with compounds. Infected hepatocytes emit light due to the luciferase reaction. Assay results are presented as the percent inhibition of light emission compared to control. […]
- Assay type: functional
- measurement parameters: sporozoite, PBLUC_HILL_SLOPE 4.26, PBLUC_R_SQUARED 0.161, read-out: LUCIFERASE INFECTION ASSAY - IC50
reported property: IC50 (µM)
Give just the number in µM; leave the unit off.

Sample "COc1ccc(-c2csc3ncnc(NCC4(N5CCOCC5)CCCCC4)c23)cc1" ; IC50 observed: 5.66

All figures here come from ChEMBL document CHEMBL4483862.
